molecular target: BRAF V600E (Homo sapiens, UniProt P15056, V600E); construct: endogenous C-terminal HiBiT fusion tag on BRAF V600E allele; endogenous in cells; host or cells: A375 clone 1F10 (CRISPR-Cas9 knock-in of the HiBiT tag; parental A375 from ATCC); test: BRAF HiBiT degradation assay, C-terminal HiBiT-tagged BRAF V600E A375 cells (clone 1F10), Nano-Glo HiBiT Lytic assay; type: cell-based; conditions: A-375; A375 (BRAF V600E, Class 1); observed Dmax, % protein degraded relative to DMSO control
Sequence (P15056 whole entry V600E, the tested form may be a part): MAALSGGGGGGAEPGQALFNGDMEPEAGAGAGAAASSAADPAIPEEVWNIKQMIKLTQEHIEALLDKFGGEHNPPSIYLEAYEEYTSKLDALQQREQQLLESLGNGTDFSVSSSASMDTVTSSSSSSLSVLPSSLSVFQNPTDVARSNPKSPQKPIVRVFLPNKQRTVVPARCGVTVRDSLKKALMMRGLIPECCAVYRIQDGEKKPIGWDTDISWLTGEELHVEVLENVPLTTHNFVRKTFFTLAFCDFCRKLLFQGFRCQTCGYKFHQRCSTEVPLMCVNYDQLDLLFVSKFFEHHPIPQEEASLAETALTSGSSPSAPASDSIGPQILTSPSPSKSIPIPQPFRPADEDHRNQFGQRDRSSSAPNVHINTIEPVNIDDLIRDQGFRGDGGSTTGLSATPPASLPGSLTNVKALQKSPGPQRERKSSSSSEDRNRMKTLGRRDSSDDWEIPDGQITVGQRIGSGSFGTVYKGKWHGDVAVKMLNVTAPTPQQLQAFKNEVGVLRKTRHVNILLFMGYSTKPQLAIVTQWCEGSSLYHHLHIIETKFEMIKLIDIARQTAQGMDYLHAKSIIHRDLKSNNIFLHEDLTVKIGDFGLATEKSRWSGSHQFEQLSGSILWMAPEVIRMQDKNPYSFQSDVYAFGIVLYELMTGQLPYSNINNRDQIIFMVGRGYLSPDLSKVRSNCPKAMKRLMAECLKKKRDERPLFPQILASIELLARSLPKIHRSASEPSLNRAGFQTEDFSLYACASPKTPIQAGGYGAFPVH
As shown below, each of these molecules has a reported Dmax value.

These solved cases illustrate the format of a correct answer.
C[C@@H]1CN(c2ccc(-n3cc(-c4cc(Cl)cc(NS(=O)(=O)N5CCCC5)c4F)c(-c4ccncc4)n3)nc2)CCN1CC1CCN(c2ccc([C@H]3CCC(=O)NC3=O)cn2)CC1
> 70%
O=C1CC[C@H](c2ccc(N3CCC(CN4CCN(c5ccc(-n6cc(-c7cc(C(F)F)cc(NS(=O)(=O)N8CCCC8)c7F)c(-c7ccncc7)n6)cc5)CC4)CC3)cc2)C(=O)N1
> 70%

Please find the next molecule below.
Input line: Tell me Dmax reported for "O=C1CCN(c2ccc(N3CCC(CN4CCN(c5cnc(-n6cc(-c7cc(Cl)cc(NS(=O)(=O)N8CCCC8)c7F)c(-c7ccncc7)n6)nc5)CC4)CC3)cc2)C(=O)N1"
Output line: > 70%

###

molecular target: BRAF G466V (Homo sapiens, UniProt P15056, G466V); construct: Horizon Discovery (HCT-116 BRAF−/− cells); host or cells: HCT-116 BRAF−/− cells, clone 8, lentiviral transduction; experiment: BRAF HiBiT degradation assay, C-terminal HiBiT-tagged BRAF G466V overexpressed in HCT-116 BRAF−/− cells (clone 8), Nano-Glo HiBiT Lytic assay; format: cell-based; conditions: BRAF G466V; DC50 at 50%: fitted conc. at Y=50
Sequence (P15056 whole entry G466V): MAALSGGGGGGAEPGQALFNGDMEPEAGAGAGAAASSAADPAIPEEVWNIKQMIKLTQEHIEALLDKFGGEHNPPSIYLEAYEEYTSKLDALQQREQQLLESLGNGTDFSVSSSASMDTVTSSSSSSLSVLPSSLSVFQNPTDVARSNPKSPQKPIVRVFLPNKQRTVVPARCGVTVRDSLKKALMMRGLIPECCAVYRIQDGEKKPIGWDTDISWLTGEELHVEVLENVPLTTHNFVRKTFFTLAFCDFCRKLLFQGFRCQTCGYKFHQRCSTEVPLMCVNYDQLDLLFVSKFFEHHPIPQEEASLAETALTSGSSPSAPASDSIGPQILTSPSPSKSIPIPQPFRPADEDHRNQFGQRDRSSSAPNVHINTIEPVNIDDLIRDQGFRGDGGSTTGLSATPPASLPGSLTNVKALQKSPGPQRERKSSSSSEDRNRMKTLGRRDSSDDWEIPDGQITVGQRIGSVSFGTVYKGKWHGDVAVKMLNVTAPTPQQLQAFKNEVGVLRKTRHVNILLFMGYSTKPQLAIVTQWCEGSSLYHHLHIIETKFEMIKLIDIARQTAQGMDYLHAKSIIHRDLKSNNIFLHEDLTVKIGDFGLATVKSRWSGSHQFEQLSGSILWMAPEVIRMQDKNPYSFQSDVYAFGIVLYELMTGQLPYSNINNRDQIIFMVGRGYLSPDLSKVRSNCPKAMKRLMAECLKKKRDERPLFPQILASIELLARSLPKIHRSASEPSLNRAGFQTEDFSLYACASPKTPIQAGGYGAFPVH
valueKind: DC50

These solved cases illustrate the format of a correct answer.
CCCS(=O)(=O)Nc1cccc(-c2nc(C(C)(C)C)sc2-c2ccnc(Nc3ccc(C4CCN(CC5CCN(c6cncc(C7CCC(=O)NC7=O)c6)CC5)CC4)cc3)n2)c1F (racemic)
> 500 nM
CCCS(=O)(=O)Nc1cccc(-c2nc(C3CCN(C(=O)C4CCN(C(=O)C5CCN(c6ccc(C7CCC(=O)NC7=O)cn6)CC5)CC4)CC3)sc2-c2ccnc(NC3CC3)n2)c1F (racemic)
> 500 nM

Please find the next compound below.
Input line: Tell me DC50 reported for CCCS(=O)(=O)Nc1cccc(-c2nc(C(C)(C)C)sc2-c2ccnc(Nc3ccc(N4CCN(C(=O)[C@@H]5CCN(c6ccc([C@H]7CCC(=O)NC7=O)cn6)C5)CC4)c(F)c3)n2)c1F (racemic)
Output line: > 500 nM

###

Molecular target: BRAF G466V (Homo sapiens, UniProt P15056, G466V)
Construct: Horizon Discovery (HCT-116 BRAF−/− cells); host or cells: HCT-116 BRAF−/− cells, clone 8, lentiviral transduction
Experiment: BRAF HiBiT degradation assay, C-terminal HiBiT-tagged BRAF G466V overexpressed in HCT-116 BRAF−/− cells (clone 8), Nano-Glo HiBiT Lytic assay
Assay type: cell-based
Conditions: BRAF G466V; DC50 at 50%: fitted conc. at Y=50
Procedure: An A375 cell line expressing a homozygous V600E mutation was purchased from ATCC (Manassas, VA, USA). […] HiBiT signal was measured by a Nano-Glo HiBiT Lytic assay (Promega cat. no. N3050). […] Luminesce units (LU) were read on an EnVision plate reader 2105 (Perkin Elmer). Percent protein remaining and viability remaining per sample were calculated as follows: […]
As shown below, each of these compounds has a reported DC50 value.

These solved cases illustrate the format of a correct answer.
CCCS(=O)(=O)Nc1cccc(-c2nc(C(C)(C)C3CCN(C(=O)C4CN(C5CCN(c6ccc7c(c6)C(=O)N(C6CCC(=O)NC6=O)C7=O)CC5)C4)CC3)sc2-c2ccnc(N)n2)c1F (racemic) [Compound 243]
> 0.5 µM
CCCS(=O)(=O)Nc1cccc(-c2cn(-c3ccc(N4CCN(CC5CCN(c6ccc([C@@H]7CCC(=O)NC7=O)cc6)CC5)CC4)nc3)nc2-c2ccncc2)c1F [Compound 4]
0.01 to 0.05 µM
CCCS(=O)(=O)Nc1cccc(-c2nc(C(C)(C)C)sc2-c2ccnc(Nc3ccc(C4CCN(CC5CCN(c6ccc(C(=O)NC7CCC(=O)NC7=O)cc6)CC5)CC4)cc3)n2)c1F (racemic) [Compound 171]
> 0.5 µM

Input line: Tell me DC50 reported for CCCS(=O)(=O)Nc1cccc(-c2cn(C3CCN(C(=O)C4CCN(CC5CCN(c6ccc(C7CCC(=O)NC7=O)cn6)CC5)CC4)CC3)nc2-c2ccncc2)c1F (racemic) [Compound 6]
Output line: > 0.5 µM

Input line: Tell me DC50 reported for CCCS(=O)(=O)Nc1cccc(-c2nc(C(C)(C)C)sc2-c2ccnc(Nc3ccc(C4CCN(C(=O)[C@@H]5CCN(c6ccc(C7CCC(=O)NC7=O)cn6)C5)CC4)cc3)n2)c1F (mixture of isomers) [Compound 164]
Output line: > 0.5 µM

###

As shown below, each of these compounds has a reported Dmax value.
target: BRAF G466V (Homo sapiens, UniProt P15056, G466V); construct: Horizon Discovery (HCT-116 BRAF−/− cells); host or cells: HCT-116 BRAF−/− cells, clone 8, lentiviral transduction; assay: BRAF HiBiT degradation assay, C-terminal HiBiT-tagged BRAF G466V overexpressed in HCT-116 BRAF−/− cells (clone 8), Nano-Glo HiBiT Lytic assay; type: cell-based; conditions: BRAF G466V (Class 3), HCT-116 BRAF−/− cells; observed Dmax relative to DMSO control

These solved cases illustrate the format of a correct answer.
CCCS(=O)(=O)Nc1cccc(-c2nc(C3CCC4(CC3)CCN(CC[C@H]3CCN(c5ccc(C6CCC(=O)NC6=O)cn5)C3)CC4)sc2-c2ccnc(N)n2)c1F (mixture of isomers)
< 30%
O=C1CCC(c2ccc(N3CCC(CN4CCN(c5ccc(-n6cc(-c7cc(Cl)cc(NS(=O)(=O)N8CCCC8)c7F)c(-c7ccncc7)n6)cc5)CC4)CC3)c(F)c2F)C(=O)N1 (racemic)
> 70%
CCCS(=O)(=O)Nc1cc(Cl)cc(-c2cn(-c3ccc(N4CCN(CC5CCN(c6ccc([C@H]7CCC(=O)NC7=O)cc6)CC5)[C@@H](C)C4)cc3)nc2-c2ccncc2)c1F
> 70%

Input line: Tell me Dmax reported for "O=C1CC[C@H](c2ccc(N3CCC(CN4CCN(c5ccc(-n6cc(-c7cc(Cl)cc(NS(=O)(=O)N8CC[C@@H](F)C8)c7F)c(-c7ccncc7)n6)c(F)c5)CC4)CC3)nc2)C(=O)N1"
Output line: > 70%

Input line: Tell me Dmax reported for CCC(C)S(=O)(=O)Nc1cc(Cl)cc(-c2cn(-c3ccc(N4CCN(CC5CCN(c6ccc([C@@H]7CCC(=O)NC7=O)cn6)CC5)CC4)cc3)nc2-c2ccncc2)c1F (mixture of isomers)
Output line: > 70%

###

biological target: BRAF G469A (Homo sapiens, UniProt P15056, G469A); construct: Horizon Discovery (HCT-116 BRAF−/− cells); host or cells: HCT-116 BRAF−/− cells, clone 34, lentiviral transduction; experiment: BRAF HiBiT degradation assay, C-terminal HiBiT-tagged BRAF G469A overexpressed in HCT-116 BRAF−/− cells (clone 34), Nano-Glo HiBiT Lytic assay; format: cell-based; details: HCT-116; Class 2; BRAF G469A; percentage protein degraded at maximal compound effect relative to DMSO
Sequence (P15056 whole entry G469A): as the sequence (P15056 whole entry V600E, the tested form may be a part) above, with G469A, E600V counted along it
valueKind: Dmax

Input line: Tell me Dmax reported for CCCS(=O)(=O)Nc1cccc(-c2nc(C(C)(C)C)sc2-c2ccnc(Nc3ccc(C4CCN(CC5CCN(c6ccc(C7CCC(=O)NC7=O)cc6)CC5)CC4)cc3)n2)c1F (racemic)
Output line: 30 to 70%

Input line: Tell me Dmax reported for CCCS(=O)(=O)Nc1cccc(-c2nc(C3CCN(C(=O)C4CCN(C(=O)C5CCN(c6ccc(C7CCC(=O)NC7=O)cn6)CC5)CC4)CC3)sc2-c2ccnc(NC)n2)c1F (racemic)
Output line: 30 to 70%

Input line: Tell me Dmax reported for "CCCS(=O)(=O)Nc1cccc(-c2nc(-c3ccc(N4CCN(CC5CCN(c6ccc([C@@H]7CCC(=O)NC7=O)cc6)CC5)CC4)cc3)sc2-c2ccnc(N)n2)c1F"
Output line: < 30%

Input line: Tell me Dmax reported for "CCCS(=O)(=O)Nc1cccc(-c2nc(C(C)(C)C)sc2-c2ccnc(Nc3ccc(N4CCN(CC5CCN(c6ccc([C@H]7CCC(=O)NC7=O)cc6)CC5)CC4)cc3)n2)c1F"
Output line: 30 to 70%

Input line: Tell me Dmax reported for CCCS(=O)(=O)Nc1cccc(-c2nc(C3CCC4(CC3)CN(C(=O)C3CCN(c5ccc6c(c5)C(=O)N(C5CCC(=O)NC5=O)C6=O)CC3)C4)sc2-c2ccnc(N)n2)c1F (racemic)
Output line: < 30%

The reported numbers originate from patent US20260317324A1.
